B1: library; a variant is named by its letters at N, in order (parent)
chain: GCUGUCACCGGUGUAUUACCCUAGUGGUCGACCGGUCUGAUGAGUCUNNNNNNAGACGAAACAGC

# Variants of: B1
# test.method.notes: normalized RNA/DNA level with ligand (relative to sTRSVctl = 100) (log10 (% of sTRSVctl)); ligand: hypoxanthine (xanthine aptamer); higher = less ribozyme self-cleavage, higher mRNA level
# test.settings: ligand concentration (+) RNA-Seq: 5 mM, HEK293T, reporter: mCherry (pCS4076), ligand present: yes
normalized RNA/DNA level with ligand (log10) by entry:
measured.parameter: normalized RNA/DNA level with ligand (log10)

sequence.string	recorded.result
GCUGUCACCGGUGUAUUACCCUAGUGGUCGACCGGUCUGAUGAGUCUGUCCCCAGACGAAACAGC [GUCCCC]	1.91
GCUGUCACCGGUGUAUUACCCUAGUGGUCGACCGGUCUGAUGAGUCUGUUUAUAGACGAAACAGC [GUUUAU]	1.96
GCUGUCACCGGUGUAUUACCCUAGUGGUCGACCGGUCUGAUGAGUCUGAAUUAAGACGAAACAGC [GAAUUA]	1.91
GCUGUCACCGGUGUAUUACCCUAGUGGUCGACCGGUCUGAUGAGUCUGCUUUAAGACGAAACAGC [GCUUUA]	1.89
GCUGUCACCGGUGUAUUACCCUAGUGGUCGACCGGUCUGAUGAGUCUUAACUAAGACGAAACAGC [UAACUA]	1.92
GCUGUCACCGGUGUAUUACCCUAGUGGUCGACCGGUCUGAUGAGUCUAGUCAGAGACGAAACAGC [AGUCAG]	1.86
GCUGUCACCGGUGUAUUACCCUAGUGGUCGACCGGUCUGAUGAGUCUCUUUAGAGACGAAACAGC [CUUUAG]	2.02
GCUGUCACCGGUGUAUUACCCUAGUGGUCGACCGGUCUGAUGAGUCUCGCGCCAGACGAAACAGC [CGCGCC]	1.93
GCUGUCACCGGUGUAUUACCCUAGUGGUCGACCGGUCUGAUGAGUCUUAAAGCAGACGAAACAGC [UAAAGC]	1.92
GCUGUCACCGGUGUAUUACCCUAGUGGUCGACCGGUCUGAUGAGUCUUAGCACAGACGAAACAGC [UAGCAC]	1.93
GCUGUCACCGGUGUAUUACCCUAGUGGUCGACCGGUCUGAUGAGUCUCCUAUUAGACGAAACAGC [CCUAUU]	1.95
GCUGUCACCGGUGUAUUACCCUAGUGGUCGACCGGUCUGAUGAGUCUGGGUUCAGACGAAACAGC [GGGUUC]	1.95
GCUGUCACCGGUGUAUUACCCUAGUGGUCGACCGGUCUGAUGAGUCUAGAGGCAGACGAAACAGC [AGAGGC]	1.99
GCUGUCACCGGUGUAUUACCCUAGUGGUCGACCGGUCUGAUGAGUCUUAAAGGAGACGAAACAGC [UAAAGG]	1.84
GCUGUCACCGGUGUAUUACCCUAGUGGUCGACCGGUCUGAUGAGUCUCCAGCUAGACGAAACAGC [CCAGCU]	1.99
GCUGUCACCGGUGUAUUACCCUAGUGGUCGACCGGUCUGAUGAGUCUAGUCAUAGACGAAACAGC [AGUCAU]	1.92
GCUGUCACCGGUGUAUUACCCUAGUGGUCGACCGGUCUGAUGAGUCUCGCGUCAGACGAAACAGC [CGCGUC]	1.97
GCUGUCACCGGUGUAUUACCCUAGUGGUCGACCGGUCUGAUGAGUCUGUGCGCAGACGAAACAGC [GUGCGC]	1.9
GCUGUCACCGGUGUAUUACCCUAGUGGUCGACCGGUCUGAUGAGUCUAUCAGCAGACGAAACAGC [AUCAGC]	1.94
GCUGUCACCGGUGUAUUACCCUAGUGGUCGACCGGUCUGAUGAGUCUCGCGACAGACGAAACAGC [CGCGAC]	1.97
GCUGUCACCGGUGUAUUACCCUAGUGGUCGACCGGUCUGAUGAGUCUUGUUUUAGACGAAACAGC [UGUUUU]	1.97
GCUGUCACCGGUGUAUUACCCUAGUGGUCGACCGGUCUGAUGAGUCUACGUGUAGACGAAACAGC [ACGUGU]	1.87
GCUGUCACCGGUGUAUUACCCUAGUGGUCGACCGGUCUGAUGAGUCUGACUACAGACGAAACAGC [GACUAC]	1.94
GCUGUCACCGGUGUAUUACCCUAGUGGUCGACCGGUCUGAUGAGUCUGAAGCUAGACGAAACAGC [GAAGCU]	1.98
GCUGUCACCGGUGUAUUACCCUAGUGGUCGACCGGUCUGAUGAGUCUAGUGAGAGACGAAACAGC [AGUGAG]	1.79
GCUGUCACCGGUGUAUUACCCUAGUGGUCGACCGGUCUGAUGAGUCUCACUCUAGACGAAACAGC [CACUCU]	1.96
GCUGUCACCGGUGUAUUACCCUAGUGGUCGACCGGUCUGAUGAGUCUUAUGUUAGACGAAACAGC [UAUGUU]	1.94
GCUGUCACCGGUGUAUUACCCUAGUGGUCGACCGGUCUGAUGAGUCUGGUUGGAGACGAAACAGC [GGUUGG]	1.83
GCUGUCACCGGUGUAUUACCCUAGUGGUCGACCGGUCUGAUGAGUCUUCGCGCAGACGAAACAGC [UCGCGC]	2.01
GCUGUCACCGGUGUAUUACCCUAGUGGUCGACCGGUCUGAUGAGUCUGGGGGGAGACGAAACAGC [GGGGGG]	1.94
GCUGUCACCGGUGUAUUACCCUAGUGGUCGACCGGUCUGAUGAGUCUUCGGAUAGACGAAACAGC [UCGGAU]	1.86
GCUGUCACCGGUGUAUUACCCUAGUGGUCGACCGGUCUGAUGAGUCUGUCAAGAGACGAAACAGC [GUCAAG]	1.85
GCUGUCACCGGUGUAUUACCCUAGUGGUCGACCGGUCUGAUGAGUCUUUACCGAGACGAAACAGC [UUACCG]	1.9
GCUGUCACCGGUGUAUUACCCUAGUGGUCGACCGGUCUGAUGAGUCUCCCGCAAGACGAAACAGC [CCCGCA]	1.94
GCUGUCACCGGUGUAUUACCCUAGUGGUCGACCGGUCUGAUGAGUCUGUGGACAGACGAAACAGC [GUGGAC]	1.89
GCUGUCACCGGUGUAUUACCCUAGUGGUCGACCGGUCUGAUGAGUCUACGGGGAGACGAAACAGC [ACGGGG]	1.81
GCUGUCACCGGUGUAUUACCCUAGUGGUCGACCGGUCUGAUGAGUCUAAGUUUAGACGAAACAGC [AAGUUU]	1.9
GCUGUCACCGGUGUAUUACCCUAGUGGUCGACCGGUCUGAUGAGUCUCCAGGAAGACGAAACAGC [CCAGGA]	1.97
GCUGUCACCGGUGUAUUACCCUAGUGGUCGACCGGUCUGAUGAGUCUUUAACGAGACGAAACAGC [UUAACG]	1.94
GCUGUCACCGGUGUAUUACCCUAGUGGUCGACCGGUCUGAUGAGUCUAUGUCCAGACGAAACAGC [AUGUCC]	1.98
GCUGUCACCGGUGUAUUACCCUAGUGGUCGACCGGUCUGAUGAGUCUCUCCGUAGACGAAACAGC [CUCCGU]	1.95
GCUGUCACCGGUGUAUUACCCUAGUGGUCGACCGGUCUGAUGAGUCUAGAGAAAGACGAAACAGC [AGAGAA]	1.88
GCUGUCACCGGUGUAUUACCCUAGUGGUCGACCGGUCUGAUGAGUCUUAAUUGAGACGAAACAGC [UAAUUG]	1.92
GCUGUCACCGGUGUAUUACCCUAGUGGUCGACCGGUCUGAUGAGUCUACUACCAGACGAAACAGC [ACUACC]	2
GCUGUCACCGGUGUAUUACCCUAGUGGUCGACCGGUCUGAUGAGUCUACCGCUAGACGAAACAGC [ACCGCU]	1.93
GCUGUCACCGGUGUAUUACCCUAGUGGUCGACCGGUCUGAUGAGUCUGUCUGUAGACGAAACAGC [GUCUGU]	1.95
GCUGUCACCGGUGUAUUACCCUAGUGGUCGACCGGUCUGAUGAGUCUUUUCGAAGACGAAACAGC [UUUCGA]	1.95
GCUGUCACCGGUGUAUUACCCUAGUGGUCGACCGGUCUGAUGAGUCUGGUUCGAGACGAAACAGC [GGUUCG]	1.92
GCUGUCACCGGUGUAUUACCCUAGUGGUCGACCGGUCUGAUGAGUCUAUACGAAGACGAAACAGC [AUACGA]	1.87
GCUGUCACCGGUGUAUUACCCUAGUGGUCGACCGGUCUGAUGAGUCUCGAGUGAGACGAAACAGC [CGAGUG]	1.92
GCUGUCACCGGUGUAUUACCCUAGUGGUCGACCGGUCUGAUGAGUCUGGAAAUAGACGAAACAGC [GGAAAU]	1.9
GCUGUCACCGGUGUAUUACCCUAGUGGUCGACCGGUCUGAUGAGUCUCGGAAGAGACGAAACAGC [CGGAAG]	1.9
GCUGUCACCGGUGUAUUACCCUAGUGGUCGACCGGUCUGAUGAGUCUGCUAAGAGACGAAACAGC [GCUAAG]	1.84
GCUGUCACCGGUGUAUUACCCUAGUGGUCGACCGGUCUGAUGAGUCUGCGGUGAGACGAAACAGC [GCGGUG]	1.79
GCUGUCACCGGUGUAUUACCCUAGUGGUCGACCGGUCUGAUGAGUCUCGGGUCAGACGAAACAGC [CGGGUC]	2.01
GCUGUCACCGGUGUAUUACCCUAGUGGUCGACCGGUCUGAUGAGUCUUCUUUUAGACGAAACAGC [UCUUUU]	1.95
GCUGUCACCGGUGUAUUACCCUAGUGGUCGACCGGUCUGAUGAGUCUGUAUUUAGACGAAACAGC [GUAUUU]	1.94
GCUGUCACCGGUGUAUUACCCUAGUGGUCGACCGGUCUGAUGAGUCUGCCAGGAGACGAAACAGC [GCCAGG]	1.87
GCUGUCACCGGUGUAUUACCCUAGUGGUCGACCGGUCUGAUGAGUCUUUACUUAGACGAAACAGC [UUACUU]	1.93
GCUGUCACCGGUGUAUUACCCUAGUGGUCGACCGGUCUGAUGAGUCUAAUCACAGACGAAACAGC [AAUCAC]	1.95
GCUGUCACCGGUGUAUUACCCUAGUGGUCGACCGGUCUGAUGAGUCUUCCUGAAGACGAAACAGC [UCCUGA]	1.97
GCUGUCACCGGUGUAUUACCCUAGUGGUCGACCGGUCUGAUGAGUCUUCACGGAGACGAAACAGC [UCACGG]	1.91
GCUGUCACCGGUGUAUUACCCUAGUGGUCGACCGGUCUGAUGAGUCUCGCACAAGACGAAACAGC [CGCACA]	1.92
GCUGUCACCGGUGUAUUACCCUAGUGGUCGACCGGUCUGAUGAGUCUACAACUAGACGAAACAGC [ACAACU]	1.89
GCUGUCACCGGUGUAUUACCCUAGUGGUCGACCGGUCUGAUGAGUCUGUGGUAAGACGAAACAGC [GUGGUA]	1.95
GCUGUCACCGGUGUAUUACCCUAGUGGUCGACCGGUCUGAUGAGUCUACCGAUAGACGAAACAGC [ACCGAU]	1.89
GCUGUCACCGGUGUAUUACCCUAGUGGUCGACCGGUCUGAUGAGUCUAUGUGGAGACGAAACAGC [AUGUGG]	1.76
GCUGUCACCGGUGUAUUACCCUAGUGGUCGACCGGUCUGAUGAGUCUUCGGCUAGACGAAACAGC [UCGGCU]	1.91
GCUGUCACCGGUGUAUUACCCUAGUGGUCGACCGGUCUGAUGAGUCUAAAUAAAGACGAAACAGC [AAAUAA]	1.89
GCUGUCACCGGUGUAUUACCCUAGUGGUCGACCGGUCUGAUGAGUCUGCACACAGACGAAACAGC [GCACAC]	1.9
GCUGUCACCGGUGUAUUACCCUAGUGGUCGACCGGUCUGAUGAGUCUCGAGCCAGACGAAACAGC [CGAGCC]	1.94
GCUGUCACCGGUGUAUUACCCUAGUGGUCGACCGGUCUGAUGAGUCUAUACACAGACGAAACAGC [AUACAC]	1.91
GCUGUCACCGGUGUAUUACCCUAGUGGUCGACCGGUCUGAUGAGUCUCCUAUCAGACGAAACAGC [CCUAUC]	2.03
GCUGUCACCGGUGUAUUACCCUAGUGGUCGACCGGUCUGAUGAGUCUUUACGUAGACGAAACAGC [UUACGU]	1.95
